assay: Relative toxicity was evaluated as ED50 for KB cell line to that of ED50 for T.B. brucei; format: organism-based; conditions: trypanosoma brucei brucei, KB cells versus Trypanosoma brucei brucei; read-out: Relative toxicity
Decision: selectivity ratio >= 20 yields label 1, all other cases yield label 0.

CCCCCOC(=O)CNC(=O)C(CSc1ccc([N+](=O)[O-])cc1[N+](=O)[O-])NC(=O)CCC(NC(=O)OCc1ccccc1)C(=O)OCCCCC (stereo not drawn) :: label 1
O=C(CCC(NC(=O)OCc1ccccc1)C(=O)OCCCl)NC(CSc1ccc([N+](=O)[O-])cc1[N+](=O)[O-])C(=O)NCC(=O)OCCCl (stereo not drawn) :: label 1

Query: Given the entry CCC(CC)OC(=O)CNC(=O)C(CSc1ccc([N+](=O)[O-])cc1[N+](=O)[O-])NC(=O)CCC(NC(=O)OCc1ccccc1)C(=O)OC(CC)CC (stereo not drawn) , answer whether its selectivity ratio meets or surpasses 20.
Response: label 1

Query: Dear colleague, could you confirm whether O=C(CCC(NC(=O)OCc1ccccc1)C(=O)OCCCCl)NC(CSc1ccc([N+](=O)[O-])cc1[N+](=O)[O-])C(=O)NCC(=O)OCCCCl (stereo not drawn) has selectivity ratio at or above 20?
Response: label 0

Query: Could you tell me if the measured selectivity ratio of CCCC(C)OC(=O)CNC(=O)C(CSc1ccc([N+](=O)[O-])cc1[N+](=O)[O-])NC(=O)CCC(NC(=O)OCc1ccccc1)C(=O)OC(C)CCC (stereo not drawn) reaches 20 or more?
Response: label 1
